Molecular target: Glycogen synthase kinase-3 beta (Homo sapiens)
Sequence (P49841 whole entry): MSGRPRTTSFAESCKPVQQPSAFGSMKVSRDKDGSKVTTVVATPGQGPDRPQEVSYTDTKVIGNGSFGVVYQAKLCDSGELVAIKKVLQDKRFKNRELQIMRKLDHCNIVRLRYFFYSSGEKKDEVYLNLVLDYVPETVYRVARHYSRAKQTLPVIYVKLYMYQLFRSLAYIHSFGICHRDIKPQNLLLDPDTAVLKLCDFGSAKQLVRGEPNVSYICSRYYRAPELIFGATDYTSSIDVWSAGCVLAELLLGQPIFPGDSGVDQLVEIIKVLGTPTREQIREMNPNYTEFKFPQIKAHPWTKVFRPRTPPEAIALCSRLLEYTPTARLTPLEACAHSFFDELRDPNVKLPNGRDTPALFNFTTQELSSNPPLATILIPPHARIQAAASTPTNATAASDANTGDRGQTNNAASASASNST
property label: IC50

Some solved entries appear below for comparison.
compound	value measured
CC[C@]1(c2cc(-c3ccnc(C)c3)ccc2F)C2=CN=NC2NC2=C1C(=O)CC(C)(C)C2 (stereo partly specified)	100 to 1000 nM
CC(C)(C)CC1=C2C(N=N1)NC1=C(C(=O)CC(C)(C)C1)[C@@]21CCc2ccc(F)cc21 (stereo partly specified)	< 100 nM
CC1(C)CC(=O)C2=C(C1)NC1=C(CN=N1)C21COC2(CN(C(=O)C(C)(C)F)C2)C1 (stereo unspecified)	< 100 nM
CCC1(c2cccc(N3CCOCC3)c2)C2=CN=NC2NC2=C1C(=O)NC(C)(C)C2 (stereo unspecified)	> 5000 nM
CC1(C)CC(=O)C2=C(C1)NC1=C(CN=N1)C21CCC1	100 to 1000 nM

Report IC50, nothing else, for this compound: CC[C@]1(c2cccc(C(F)(F)F)c2)C2=CN=NC2NC2=C1C(=O)N(c1cscn1)CC2 (stereo partly specified)
100 to 1000 nM

====

Recorded pIC50 by entry
Molecular target: Glycogen synthase kinase-3 alpha (Homo sapiens)
Sequence (P49840 whole entry): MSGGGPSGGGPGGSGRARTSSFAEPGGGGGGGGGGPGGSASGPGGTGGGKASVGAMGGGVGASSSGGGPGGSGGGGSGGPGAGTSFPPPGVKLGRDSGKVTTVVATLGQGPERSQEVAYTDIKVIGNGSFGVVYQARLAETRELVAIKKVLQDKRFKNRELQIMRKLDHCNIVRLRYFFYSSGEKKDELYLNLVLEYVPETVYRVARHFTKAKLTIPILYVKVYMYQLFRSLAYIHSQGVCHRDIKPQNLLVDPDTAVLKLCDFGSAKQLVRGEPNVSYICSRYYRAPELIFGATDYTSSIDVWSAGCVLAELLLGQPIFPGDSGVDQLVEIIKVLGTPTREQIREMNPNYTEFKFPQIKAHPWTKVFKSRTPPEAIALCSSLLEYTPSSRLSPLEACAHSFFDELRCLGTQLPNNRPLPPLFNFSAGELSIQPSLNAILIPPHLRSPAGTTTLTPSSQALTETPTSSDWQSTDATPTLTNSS
pIC50: −log10 of the molar value.

Example compounds with recorded pIC50:
compound	pIC50
CC[C@@]1(c2cccc(-c3cnn(C)c3C)c2)C2=C(CC(C)(C)NC2=O)NC2N=NC(C)=C21 (some centres not stated) [US20250313563, Compound 945731]	> 7.00
CC[C@@]1(c2cccc(-c3cnn(Cc4cccc(F)c4F)c3)c2)C2=CN=NC2NC2=C1C(=O)NC(C)(C)C2 (some centres not stated) [US20250313563, Compound 951840]	> 7.00
CC[C@]1(c2cccc(Br)c2)C2=CN=NC2NC2=C1C(=O)C[C@@H](C(F)(F)F)C2 (some centres not stated) [US20250313563, Compound 826653]	> 7.00
CC(C)(C)CC1N=NC2=C1[C@](C)(c1ccccc1)C1=C(CC(C)(C)NC1=O)N2 (some centres not stated) [US20250313563, Compound 114531]	< 5.30
CC[C@]1(c2cccc(C(F)(F)F)c2)C2=CN=NC2NC2=C1C(=O)N(Cc1ccccc1)CC2 (some centres not stated) [US20250313563, Compound 912005]	6.00 to 7.00
CCC1(c2cccc(C(F)(F)F)c2)C2=CN=NC2NC2=C1C(=O)N(c1cnn(C)c1C)CC2 (configuration not stated) [US20250313563, Compound 950612]	> 7.00

Given CC1(C)CC(=O)C2=C(C1)NC1=C(CN=N1)C2(C)c1cccc(-c2ccccc2)c1 (configuration not stated) [US20250313563, Compound 789513] , respond with its pIC50.
6.00 to 7.00

====

These records show IC50 for Glycogen synthase kinase-3 beta (Homo sapiens).

Example molecules with recorded IC50:
molecule	test system	value measured
CC[C@@]1(c2cccc(C(F)F)c2)C2=C(CC(C)(C)CC2=O)NC2N=NC(C(F)(F)F)=C21 (stereo not given in full)	Glycogen synthase kinase-3 beta (Homo sapiens)	100 to 1000 nM
CC[C@]1(c2cccc(-c3ccncc3C(F)(F)F)c2)C2=CN=NC2NC2=C1C(=O)CC(C)(C)C2 (stereo not given in full)	Glycogen synthase kinase-3 beta (Homo sapiens)	1000 to 5000 nM

# return recorded IC50 for entry CC[C@]1(c2cccc(-c3cnn(C)c3)c2)C2=C(CC(C)(C)CC2=O)NC2N=NC(C)=C21 (stereo not given in full)
1000 to 5000 nM

Quote IC50 reported for CCC1(c2cccc(Br)c2)C2=CN=NC2NC2=C1C(=O)NC(C)C2 (stereo not given) please.
1000 to 5000 nM

// fetch IC50 given entry CC[C@]1(c2cccc(C(F)(F)F)c2)C2=CN=NC2NC2=C1C(=O)N(c1ccccc1C)CC2 (stereo not given in full)
100 to 1000 nM

Name the recorded IC50 of the molecule listed here: `C[C@@H]1C[C@]2(CCN1S(=O)(=O)c1ccn(C)n1)C1=C(N=NC1)NC1=C2C(=O)CC(C)(C)C1`
< 100 nM

Tell me its IC50 given CC[C@@]1(c2cccc(N(C)c3ncccn3)c2)C2=CN=NC2NC2=C1C(=O)NC(C)(C)C2 (stereo not given in full) [US20250313563, Compound 943965] as the entry.
> 5000 nM

Please report the measured IC50 for CC[C@@]1(c2cccc(-c3ccnc(OC)c3Cl)c2)C2=CN=NC2NC2=C1C(=O)NC(C)(C)C2 (stereo not given in full)
100 to 1000 nM

Quick one: give measured IC50 for CCC1(c2cccc(N(CCc3ccccc3)C(C)=O)c2)C2=CN=NC2NC2=C1C(=O)CC(C)(C)C2 (stereo not given)
< 100 nM

// fetch IC50 given entry `C[C@@H]1C[C@H](C)C[C@]2(C1)C1=C(N=NC1)NC1=C2C(=O)CC(C)(C)C1`
1000 to 5000 nM

Note down IC50 recorded for CC[C@@]1(c2cccc(C(F)(F)F)c2)C2=CN=NC2NC2=C1C(=O)N(c1cscn1)CC2 (stereo not given in full)
> 5000 nM

Please indicate IC50 recorded for CC[C@]1(c2cccc(N(C)c3cccc(C(C)(F)F)c3)c2)C2=CN=NC2NC2=C1C(=O)CC(C)(C)C2 (stereo not given in full)
> 5000 nM

Name the recorded IC50 of the item `CC1(C)CC(=O)C2=C(C1)NC1=C(CN=N1)C21CN(C2CCOCC2)C1` in your answer.
> 5000 nM

Name the recorded IC50 of the molecule listed here: `CC1(C)CC(=O)C2=C(C1)NC1=C(CN=N1)C21CN(C(=O)c2ccccc2)C1`
> 5000 nM

Find the measured IC50 of O=C1C2=C(NC3N=NC=C3C23CCOCC3)C2CCC1C2 (stereo not given) and report it.
100 to 1000 nM
